Target: Siglec-2 (CD22) (Homo sapiens)
Sequence (P20273 20-847): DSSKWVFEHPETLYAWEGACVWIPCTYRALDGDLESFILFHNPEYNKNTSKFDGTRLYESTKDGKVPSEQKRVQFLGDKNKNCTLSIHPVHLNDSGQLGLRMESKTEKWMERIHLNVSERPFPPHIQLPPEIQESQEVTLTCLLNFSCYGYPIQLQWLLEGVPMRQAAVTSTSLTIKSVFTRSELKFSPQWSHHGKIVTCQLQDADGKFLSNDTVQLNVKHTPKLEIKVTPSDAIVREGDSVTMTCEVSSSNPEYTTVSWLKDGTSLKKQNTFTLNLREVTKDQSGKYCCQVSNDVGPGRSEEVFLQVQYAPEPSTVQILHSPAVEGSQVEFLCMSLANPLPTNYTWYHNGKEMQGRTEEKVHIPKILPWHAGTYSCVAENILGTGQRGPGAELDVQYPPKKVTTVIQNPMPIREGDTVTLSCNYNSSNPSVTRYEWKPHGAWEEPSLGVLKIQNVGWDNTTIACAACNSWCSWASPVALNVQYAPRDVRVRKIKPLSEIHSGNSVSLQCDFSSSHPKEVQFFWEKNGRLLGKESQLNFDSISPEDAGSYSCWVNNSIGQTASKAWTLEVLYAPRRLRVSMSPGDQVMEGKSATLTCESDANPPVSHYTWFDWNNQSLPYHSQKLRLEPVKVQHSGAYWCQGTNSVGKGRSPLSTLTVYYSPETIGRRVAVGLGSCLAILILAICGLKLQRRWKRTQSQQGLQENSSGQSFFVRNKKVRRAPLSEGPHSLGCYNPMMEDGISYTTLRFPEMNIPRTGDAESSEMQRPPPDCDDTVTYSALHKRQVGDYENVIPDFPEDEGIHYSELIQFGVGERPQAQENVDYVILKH
Assay: new affinity assay: displacement of biotinylated compound 155 from sialidase-treated Daudi cells, FACS with streptavidin-PE
Format: binding
Parameters: endogenous in cells; host or cells: Daudi (human B-cell lymphoma line)
Details: Table II; rIP values set relative to compound 38; Daudi cells, displacement of compound 155

Compound	Experimental Target	rIP
CC(=O)N[C@H]1[C@H]([C@H](O)[C@H](O)CNC(=O)c2ccc(-c3ccccc3)cc2)O[C@@](OCCC[S+]([O-])CCNC(=O)c2ccc(C(=O)NCC[S+]([O-])CCCO[C@]3(C(=O)[O-])C[C@H](O)[C@@H](NC(C)=O)[C@H]([C@H](O)[C@H](O)CNC(=O)c4ccc(-c5ccccc5)cc4)O3)cc2)(C(=O)[O-])C[C@@H]1O.[Na+].[Na+] (some centres unmarked)	Siglec-2 (CD22) (Homo sapiens)	212
CC(=O)Nc1ccc(C(=O)NC[C@@H](O)[C@@H](O)[C@@H]2O[C@@](OCCCSCCNC(=O)c3ccc(C(=O)NCCSCCCO[C@]4(C(=O)[O-])C[C@H](O)[C@@H](NC(C)=O)[C@H]([C@H](O)[C@H](O)CNC(=O)c5ccc(NC(C)=O)cc5)O4)cc3)(C(=O)[O-])C[C@H](O)[C@H]2NC(C)=O)cc1.[Na+].[Na+]	Siglec-2 (CD22) (Homo sapiens)	13

----------
Target: Siglec-2 (CD22) (Homo sapiens)
Assay: new affinity assay: displacement of biotinylated compound 155 from sialidase-treated Daudi cells, FACS with streptavidin-PE
Type: binding
Design: endogenous in cells; host or cells: Daudi (human B-cell lymphoma line)
Conditions: Table II; rIP values set relative to compound 38; Daudi cells, displacement of compound 155

Compound	rIP
CC(=O)N[C@H]1[C@H]([C@H](O)[C@H](O)CNC(=O)c2ccc(-c3ccccc3)cc2)O[C@@](OCC(=O)NCCCC(=O)Nc2ccc(NC(=O)CCCNC(=O)CO[C@]3(C(=O)[O-])C[C@H](O)[C@@H](NC(C)=O)[C@H]([C@H](O)[C@H](O)CNC(=O)c4ccc(-c5ccccc5)cc4)O3)cc2)(C(=O)[O-])C[C@@H]1O.[Na+].[Na+] [Compound 90]	1445
CC(=O)N[C@H]1[C@H]([C@H](O)[C@H](O)CNC(=O)/C=C/c2ccccc2)O[C@@](OCCCSCCNC(=O)c2ccc(C(=O)NCCSCCCO[C@]3(C(=O)[O-])C[C@H](O)[C@@H](NC(C)=O)[C@H]([C@H](O)[C@H](O)CNC(=O)/C=C/c4ccccc4)O3)cc2)(C(=O)[O-])C[C@@H]1O.[Na+].[Na+] [Compound 83]	73
CC(=O)N[C@H]1[C@H]([C@H](O)[C@H](O)CNC(=O)c2ccc(-c3ccccc3)cc2)O[C@@](OCCCSCCNC(=O)c2ccc(C(=O)NCCSCCCO[C@]3(C(=O)[O-])C[C@H](O)[C@@H](NC(C)=O)[C@H]([C@H](O)[C@H](O)CNC(=O)c4ccc(C5CCCCC5)cc4)O3)cc2)(C(=O)[O-])C[C@@H]1O.[Na+].[Na+] [Compound 103]	185

----------
Biological target: Siglec-2 (CD22) (Homo sapiens)
Test: new affinity assay: displacement of biotinylated compound 155 from sialidase-treated Daudi cells, FACS with streptavidin-PE
Type: binding
Design: endogenous in cells; host or cells: Daudi (human B-cell lymphoma line)
Details: Table II; rIP values set relative to compound 38; Daudi cells, displacement of compound 155
Description: To determine the affinity of the compound of the formula (I), approximately 5×10^6 to 2×10^8 cells of the human B-cell lymphoma line “Daudi” were incubated with sialidase (A. ureafaciens) at 37° C. for 1 h (final concentration 0.1 unit/ml). […] Batches of 1-2×10^6 cells were transferred to sample vessels, and incubated on ice for 15 min with serial concentrations (10-fold dilutions, 1 mM to 1×10^−7 mM) of the substance under measurement (inhibitor). The reaction volume was 50 μl. […]

Compound	rIP
CC(=O)N[C@H]1[C@H]([C@H](O)[C@H](O)CNC(=O)c2ccc(-c3ccccc3)cc2)O[C@@](OCCCSCCNC(=O)c2ccc(C(=O)NCCSCCCO[C@]3(C(=O)[O-])C[C@H](O)[C@@H](NC(C)=O)[C@H]([C@H](O)[C@H](O)CNC(=O)c4ccc(-c5ccccc5)cc4)O3)cc2)(C(=O)[O-])C[C@@H]1OC(=O)c1ccccc1.[Na+].[Na+] [Compound 147]	32069
CC(=O)N[C@H]1[C@H]([C@H](O)[C@H](O)CNC(=O)Cc2ccc(-c3ccccc3)cc2)O[C@@](OCCCSCCNC(=O)c2ccc(-c3ccc(C(=O)NCCSCCCO[C@]4(C(=O)[O-])C[C@H](O)[C@@H](NC(C)=O)[C@H]([C@H](O)[C@H](O)CNC(=O)Cc5ccc(-c6ccccc6)cc5)O4)cc3)cc2)(C(=O)[O-])C[C@@H]1O.[Na+].[Na+] [Compound 128]	19
CC(=O)N[C@H]1[C@H]([C@H](O)[C@H](O)CNC(=O)c2ccc(-c3ccc(C)cc3)cc2)O[C@@](OCCCSCCNC(=O)c2ccc(C(=O)NCCSCCCO[C@]3(C(=O)[O-])C[C@H](O)[C@@H](NC(C)=O)[C@H]([C@H](O)[C@H](O)CNC(=O)c4ccc(-c5ccc(C)cc5)cc4)O3)cc2)(C(=O)[O-])C[C@@H]1O.[Na+].[Na+] [Compound 76]	188
CC(=O)N[C@H]1[C@H]([C@H](O)[C@H](O)CNC(=O)Cc2ccc3ccccc3c2)O[C@@](OCCCSCCNC(=O)c2ccc(-c3ccc(C(=O)NCCSCCCO[C@]4(C(=O)[O-])C[C@H](O)[C@@H](NC(C)=O)[C@H]([C@H](O)[C@H](O)CNC(=O)Cc5ccc6ccccc6c5)O4)cc3)cc2)(C(=O)[O-])C[C@@H]1O.[Na+].[Na+] [Compound 127]	74
CC(=O)N[C@H]1[C@H]([C@H](O)[C@H](O)Cn2cc(-c3ccccc3)nn2)O[C@@](OCCCSCCNC(=O)c2ccc(C(=O)NCCSCCCO[C@]3(C(=O)[O-])C[C@H](O)[C@@H](NC(C)=O)[C@H]([C@H](O)[C@H](O)Cn4cc(-c5ccccc5)nn4)O3)cc2)(C(=O)[O-])C[C@@H]1O.[Na+].[Na+] [Compound 95]	6
CC(=O)N[C@H]1[C@H]([C@H](O)[C@H](O)CNC(=O)c2ccc(-c3ccccc3)cc2)O[C@@](OCCCCCCNC(=O)c2ccc(C(=O)NCCSCCCO[C@]3(C(=O)O)C[C@H](O)[C@@H](NC(C)=O)[C@H]([C@H](O)[C@H](O)CNC(=O)c4ccc(-c5ccccc5)cc4)O3)cc2)(C(=O)O)C[C@@H]1O [Compound 92]	3788
CC(=O)N[C@H]1[C@H]([C@H](O)[C@H](O)CNC(=O)c2ccc(-c3ccccc3)cc2)O[C@@](OCCCSCCNC(=O)Nc2ccc(NC(=O)NCCSCCCO[C@]3(C(=O)[O-])C[C@H](O)[C@@H](NC(C)=O)[C@H]([C@H](O)[C@H](O)CNC(=O)c4ccc(-c5ccccc5)cc4)O3)cc2)(C(=O)[O-])C[C@@H]1O.[Na+].[Na+] [Compound 49]	626
CC(=O)N[C@H]1[C@H]([C@H](O)[C@H](O)CNC(=O)c2ccc(-c3ccccc3)cc2)O[C@@](OCCCSCCNC(=O)Cc2ccc(CC(=O)NCCSCCCO[C@]3(C(=O)[O-])C[C@H](O)[C@@H](NC(C)=O)[C@H]([C@H](O)[C@H](O)CNC(=O)c4ccc(-c5ccccc5)cc4)O3)cc2)(C(=O)[O-])C[C@@H]1O.[Na+].[Na+] [Compound 28]	129
CC(=O)N[C@H]1[C@H]([C@H](O)[C@H](O)CNC(=O)c2ccc(Oc3ccccc3)cc2)O[C@@](OCCCSCCNC(=O)c2ccc(C(=O)NCCSCCCO[C@]3(C(=O)[O-])C[C@H](O)[C@@H](NC(C)=O)[C@H]([C@H](O)[C@H](O)CNC(=O)c4ccc(Oc5ccccc5)cc4)O3)cc2)(C(=O)[O-])C[C@@H]1O.[Na+].[Na+] [Compound 63]	20
CC(=O)N[C@H]1[C@H]([C@H](O)[C@H](O)CO)O[C@@](OCCCSCCNC(=O)c2ccc(C(=O)NCCSCCCO[C@]3(C(=O)[O-])C[C@H](O)[C@@H](NC(C)=O)[C@H]([C@H](O)[C@H](O)CO)O3)cc2)(C(=O)[O-])C[C@@H]1O.[Na+].[Na+] [Compound 38]	1
CC(=O)N[C@H]1[C@H]([C@H](O)[C@H](O)CNC(=O)c2ccc(-c3ccccc3)cc2)O[C@@](OCCCSCCNC(=O)c2ccc(-c3ccc(C(=O)NCCSCCCO[C@]4(C(=O)[O-])C[C@H](O)[C@@H](NC(C)=O)[C@H]([C@H](O)[C@H](O)CNC(=O)c5ccc(-c6ccccc6)cc5)O4)cc3)cc2)(C(=O)[O-])C[C@@H]1O.[Na+].[Na+] [Compound 24]	75
CC(=O)N[C@H]1[C@H]([C@H](O)[C@H](O)CNC(=O)c2ccc(-c3ccc(C(=O)[O-])cc3)cc2)O[C@@](OCCCSCCNC(=O)c2ccc(C(=O)NCCSCCCO[C@]3(C(=O)[O-])C[C@H](O)[C@@H](NC(C)=O)[C@H]([C@H](O)[C@H](O)CNC(=O)c4ccc(-c5ccc(C(=O)[O-])cc5)cc4)O3)cc2)(C(=O)[O-])C[C@@H]1O.[Na+].[Na+].[Na+].[Na+] [Compound 68]	5
